Each recorded value in this set is attributed to the supplement of paper PMC6757056.

B1: library; a variant is named by its letters at N, in order (parent)
chain: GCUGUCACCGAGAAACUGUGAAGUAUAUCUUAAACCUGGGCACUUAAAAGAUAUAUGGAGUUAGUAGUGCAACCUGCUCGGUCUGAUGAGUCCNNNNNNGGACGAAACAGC

Variants of: B1
Method: normalized RNA/DNA level without ligand (relative to sTRSVctl = 100) (log10 (% of sTRSVctl)); HEK293T; ligand: cyclic di-GMP (c-di-GMP-II aptamer); higher = less ribozyme self-cleavage, higher mRNA level
Assay Context: reporter: mCherry (pCS4076), ligand present: no
Reported normalized RNA/DNA level without ligand (log10) by item:
No unit in the answer, please; the number alone is enough.

Worked set:
[[record]]
variant_label = "UCGUAU"
assay_value = 1.53

[[record]]
variant_label = "UUGGCG"
assay_value = 1.85

[[record]]
variant_label = "UGUUAU"
assay_value = 1.68


Attention now shifts to the item below.
GET /value?item= AGCAGG &field=normalized RNA/DNA level without ligand (log10) returns 1.82
